Ref: PubChem BioAssay AID1259407

Test system: CCRIS mutagenicity, Ames/micronucleus/aberration tests
ASSAY_METHOD_TEXT: CCRIS mutagenicity studies
DETAILS: Test System: AMES SALMONELLA TYPHIMURIUM; Strain/Indicator: TA98; Metabolic Activation: NONE; Method: PREINCUBATION
The source made the active and inactive calls. How the calls were made is not given here.
Give one outcome, nothing more. List: active, inactive

Example entries and their recorded answers appear below.
COC(=O)C(C)=Cc1ccc([N+](=O)[O-])o1 = active
CCCCCN = inactive

Q: What call does the record list for CCCCCCCCCCCCO ?
A: inactive

Q: What call does the record list for Nc1cc2nc3ccccc3nc2cc1O ?
A: inactive

###

Tested on: CCRIS mutagenicity, Ames/micronucleus/aberration tests
ASSAY_METHOD_TEXT: CCRIS mutagenicity studies
DETAILS: Test System: AMES SALMONELLA TYPHIMURIUM; Strain/Indicator: TA1537; Metabolic Activation: RAT, LIVER, S-9, AROCLOR 1254; Method: STANDARD PLATE
Calls of active or inactive are those of the source. No rule for the calls is given here.
Give one outcome, nothing more. List: active, inactive

Example entries and their recorded answers appear below.
Cc1cc(O)c2c(O)c3c(O)cccc3cc2c1 = active
O=S(=O)(Nc1ccc(Cl)c(Cl)c1)c1cccc2cccnc12 = inactive
CC(C)Cc1ccc(C(C)C(=O)O)cc1 (stereo not given) = inactive
COCC1O[C@@H](O[C@@H]2C(COC)OC(OC)C(OC)C2OC)C(OC)C(OC)C1OC (stereo not given in full) = inactive
CCN(CC)c1cc(NC(C)=O)c(N=Nc2ccc([N+](=O)[O-])cc2)cc1OC = active

Alright, here's another molecule for you.
Q: What call does the record list for C=CC(=O)OC ?
A: inactive

###

System: CCRIS mutagenicity, Ames/micronucleus/aberration tests
ASSAY_METHOD_TEXT: CCRIS mutagenicity studies
DETAILS: Test System: AMES SALMONELLA TYPHIMURIUM; Strain/Indicator: TA98; Metabolic Activation: RAT, LIVER, S-9, AROCLOR 1254; Method: STANDARD PLATE
Active and inactive are the calls of the source. No rule for the calls is given here.
Give one outcome, nothing more. List: class 1 for active, class 0 for inactive

Example entries and their recorded answers appear below.
Oc1ccc2ccc3c4ccccc4cc4ccc1c2c43 = class 1
CC(=O)c1ccccn1 = class 0
CN1CCN(C2=Nc3cc(Cl)ccc3Nc3ccccc32)CC1 = class 0
C(=Nc1ccccc1)c1cccc2cccnc12 = class 0
ClCBr = class 1

Q: What call does the record list for Cc1ccc(C(=O)O[C@@H](C(=O)O)[C@@H](OC(=O)c2ccc(C)cc2)C(=O)O)cc1 (tested in a mixture with another compound) ?
A: class 1

Q: What call does the record list for CCOc1cc(N=Nc2ccc(N(CC)CC)cc2)ccc1N=Nc1c(S(=O)(=O)O)cc2ccc(N)cc2c1O ?
A: class 1

Q: What call does the record list for Nc1ccc(Cl)c(N)c1 ?
A: class 1

Q: What call does the record list for O=C1C=CC(=O)CC(=O)C1 ?
A: class 0

Q: What call does the record list for O=C1NC(=O)C(c2ccccc2)(c2ccccc2)N1 ?
A: class 0

Q: What call does the record list for O=[N+]([O-])c1ccc2c(O)cc3cccc4ccc1c2c43 ?
A: class 1

Q: What call does the record list for O=C(/C=C/c1ccc([N+](=O)[O-])cc1)c1ccc([N+](=O)[O-])cc1 ?
A: class 0

Q: What call does the record list for Cn1c([N+](=O)[O-])cnc1C1NC(CO)(CO)CO1 (configuration not stated) ?
A: class 1

Q: What call does the record list for CCOc1ccc(N=O)cc1 ?
A: class 1

###

Tested on: CCRIS mutagenicity, Ames/micronucleus/aberration tests
ASSAY_METHOD_TEXT: CCRIS mutagenicity studies
DETAILS: Test System: AMES SALMONELLA TYPHIMURIUM; Strain/Indicator: TA98; Metabolic Activation: NONE; Method: STANDARD PLATE
Activity calls are given as the source filed them. How the calls were made is not given here.
ATTRIBUTE_MEASURED: mutagenic call

Here is how some compounds turned out for mutagenic call.
O=[N+]([O-])c1cc2c3ccccc3ccc2c2ccccc12 = active; positive
NCCNC(=O)c1ccc(Cl)cn1 = inactive; negative
CC(C)(CO)[C@@H](O)C(=O)NCCCO = inactive; negative
C#C[C@]1(OC(=O)CCCCCC)CC[C@H]2[C@@H]3CCC4=CC(=O)CC[C@@H]4[C@H]3CC[C@@]21C = inactive; negative

Q: Value lookup for mutagenic call; key = Cc1ncc2c(n1)CCC2
A: inactive; negative

Q: Value lookup for mutagenic call; key = C=CCCCCCCCCCCC
A: inactive; negative

Q: Value lookup for mutagenic call; key = O=C(/C=C/c1ccc([N+](=O)[O-])cc1)c1ccc([N+](=O)[O-])cc1
A: active; positive

Q: Value lookup for mutagenic call; key = CC(C)(C)c1ccc(/C=C/c2ccc(N)cc2)cc1
A: inactive; negative

Q: Value lookup for mutagenic call; key = O=[N+]([O-])c1ccc2c(O)cc3cccc4ccc1c2c43
A: active; positive

Q: Value lookup for mutagenic call; key = O=[N+]([O-])c1ccc2[nH]c3c([N+](=O)[O-])cccc3c2c1
A: active; positive

Q: Value lookup for mutagenic call; key = CC(C)=CCCC(C)CC=O (configuration not stated)
A: inactive; negative

Q: Value lookup for mutagenic call; key = ClCc1ccc2c3c(cccc13)-c1ccccc1-2
A: active; positive

Q: Value lookup for mutagenic call; key = Cc1ccc(N=Nc2c(O)ccc3ccccc23)c(S(=O)(=O)O)c1
A: inactive; negative

Q: Value lookup for mutagenic call; key = O=C(O)c1cc(Cl)cc2cccnc12
A: inactive; negative

Q: Value lookup for mutagenic call; key = CN(C)c1ccc(C(=C2C=CC(=[N+](C)C)C=C2)c2ccccc2)cc1
A: inactive; negative

Q: Value lookup for mutagenic call; key = CS(C)=O.[Cl-].[Cl-].[Pt+2].c1ccncc1
A: inactive; negative

Q: Value lookup for mutagenic call; key = CC(=O)O[C@H]1[C@@H]2CC(C)(C)CC2=C(C=O)[C@@]2(C=O)C[C@@]12C
A: inactive; negative

Q: Value lookup for mutagenic call; key = COc1cc([C@H]2OC[C@H]3[C@@H]2CO[C@@H]3c2cc(OC)c(OC)c(OC)c2)cc(OC)c1OC
A: inactive; negative

Q: Value lookup for mutagenic call; key = CCO[Si](C)(OCC)OCC
A: inactive; negative

Q: Value lookup for mutagenic call; key = CCCO
A: inactive; negative

Q: Value lookup for mutagenic call; key = ClC(Cl)Br
A: inactive; negative

Q: Value lookup for mutagenic call; key = Clc1cccc2oc3ccccc3c12
A: inactive; negative

###

System: CCRIS mutagenicity, Ames/micronucleus/aberration tests
ASSAY_METHOD_TEXT: CCRIS mutagenicity studies
DETAILS: Test System: AMES SALMONELLA TYPHIMURIUM; Strain/Indicator: TA100; Metabolic Activation: RAT, LIVER, S-9, AROCLOR 1254 (10%); Method: PREINCUBATION
Activity calls are given as the source filed them. No rule for the calls is given here.
Give one outcome, nothing more. List: active, inactive

Example entries and their recorded answers appear below.
O=C=Nc1ccc(Cc2ccc(N=C=O)cc2)cc1 = inactive
OC/C(Br)=C(\Br)CO = active
CCN(CC)c1ccc2c(-c3ccccc3C(=O)O)c3ccc(=[N+](CC)CC)cc-3oc2c1 = inactive

Q: What call does the record list for COC[CH2][Hg][Cl] ?
A: inactive

Q: What call does the record list for O=C(Cl)c1ccccc1[N+](=O)[O-] ?
A: active

###

Test system: CCRIS mutagenicity, Ames/micronucleus/aberration tests
ASSAY_METHOD_TEXT: CCRIS mutagenicity studies
DETAILS: Test System: AMES SALMONELLA TYPHIMURIUM; Strain/Indicator: TA100; Metabolic Activation: NONE; Method: PREINCUBATION
Calls of active or inactive are those of the source. How the calls were made is not given here.
ATTRIBUTE_MEASURED: mutagenic call

Here is how some compounds turned out for mutagenic call.
Cc1ccc(S(=O)(=O)O)cc1C = inactive; negative
COC[CH2][Hg][Cl] = inactive; negative
COC(=O)c1ccc(C=O)cc1 = inactive; negative
CCOP(=S)(OCC)Oc1cc(C)nc(C(C)C)n1 = inactive; negative
N[C@@H](CS/C(Cl)=C(\Cl)C(Cl)(Cl)Cl)C(=O)O = active; positive

Q: Value lookup for mutagenic call; key = CCCCC(CC)COC(=O)c1ccc(N(C)N=O)cc1 (configuration not stated)
A: inactive; negative

Q: Value lookup for mutagenic call; key = O=C1c2ccccc2C(=O)c2c(O)cccc21
A: inactive; negative

Q: Value lookup for mutagenic call; key = Oc1cc(Cl)cc(Cl)c1
A: inactive; negative

Q: Value lookup for mutagenic call; key = O=C(O)/C(Cl)=C(\CCl)C(Cl)Cl
A: active; positive

Q: Value lookup for mutagenic call; key = CCc1cc(C(N)=S)ccn1
A: inactive; negative

Q: Value lookup for mutagenic call; key = CC(O)C(C)[N+](=O)[O-] (configuration not stated)
A: inactive; negative
